Measured values drawn from patent EP4656642A1 for this set.

System: T-47D cells
Assay: Inhibition of cell proliferation in T-47D cells (CCK-8, 6 days)
Format: cell-based
Conditions: 6 days of treatment, Table 3
Description: Test Example 2: Inhibitory effect of the PROTAC compounds provided in the present disclosure on cell proliferation in T-47D cells (source ATCC) The complete medium required for T-47D cells was 1640 ( ATCC, Product number: A10491-01) basal medium containing 10% fetal bovine serum. […] Cell viability was detected using a CCK-8 kit (Beyotime, Product number: C0040) according to the manufacturer's instructions. […]
pIC50: −log10 of the molar value.
assay_metric: pIC50

O=C1CCC(N2Cc3cc4c(cc3C2=O)OC2(CC4)CN(C(=O)C3CCC4(CC3)CN(c3ccc([C@@H]5c6ccc(O)cc6CC[C@@H]5c5ccccc5)cc3)C4)C2)C(=O)N1 (some centres unmarked)	7.93
O=C1CCC(N2Cc3ccc4c(c3C2=O)OCC2(CCN(C3CCC5(CC3)CCN(c3ccc([C@@H]6c7ccc(O)cc7CC[C@@H]6c6ccccc6)cc3)CC5)CC2)C4)C(=O)N1 (some centres unmarked)	8.30
O=C1CCC(N2Cc3c(ccc4c3OCC43CCN(C4CCN(C(=O)C5CCN(c6ccc([C@@H]7c8ccc(O)cc8CC[C@@H]7c7ccccc7)cc6)CC5)CC4F)CC3)C2=O)C(=O)N1 (some centres unmarked)	8.88
O=C1CCC(N2Cc3c(ccc4c3OCC43CCN(C4CCN(CC5CCN(c6ccc([C@@H]7c8ccc(O)cc8CC[C@@H]7c7ccccc7)cc6)CC5)C(=O)C4)CC3)C2=O)C(=O)N1 (some centres unmarked)	8.79
O=C1CCC(N2Cc3c(ccc4c3OCC43CCN(CC4(F)CCN(C(=O)C5CCN(c6ccc([C@@H]7c8ccc(O)cc8CC[C@@H]7c7ccccc7)cc6)CC5)CC4)CC3)C2=O)C(=O)N1 (some centres unmarked)	8.89

(A) CN(C(=O)CN1CCC2(CC1)COc1c2ccc2c1C(=O)N(C1CCC(=O)NC1=O)C2=O)C1CCC2(CC1)CCN(c1ccc([C@@H]3c4ccc(O)cc4CC[C@@H]3c3ccccc3)cc1)CC2 (some centres unmarked)
(B) C[C@@H]1Cc2c([nH]c3ccccc23)[C@@H](c2c(F)cc(N3CCC4(CCC(N5CCC6(CC5)COc5c6ccc6c5CN(C5CCC(=O)NC5=O)C6=O)CC4)CC3)cc2F)N1CC(F)F (some centres unmarked)
**Query** pIC50 comparison. Which is larger, A or B ? // return label of chosen record
**Result** B
(B: 8.52, A: 8.04)

(I) C[C@@H]1CN(C(=O)C2(F)CCN(c3ccc([C@@H]4c5ccc(O)cc5CC[C@@H]4c4ccccc4)cc3)CC2)CCC1N1CCC2(CC1)COc1c2ccc2c1CN(C1CCC(=O)NC1=O)C2=O (some centres unmarked)
(II) O=C1CCC(N2C(=O)c3ccc4c(c3C2=O)OCC42CCN(C(=O)CN3CCC4(CCN(c5ccc([C@@H]6c7ccc(O)cc7CC[C@@H]6c6ccccc6)cc5)CC4)C3)CC2)C(=O)N1 (some centres unmarked)
**Query** Compare I and II and name the one whose reported pIC50 is smaller. // return label of chosen record
**Result** I

(1) O=C1CCC(N2C(=O)c3cc4c(cc3C2=O)C2(CCN(C3CC5(CCN(c6ccc([C@@H]7c8ccc(O)cc8CC[C@@H]7c7ccccc7)cc6)CC5)C3)CC2)CO4)C(=O)N1 (some centres unmarked)
(2) O=C1CCC(N2Cc3cc4c(cc3C2=O)CCC2(CN(C3CCN(C5CCN(c6ccc([C@@H]7c8ccc(O)cc8CC[C@@H]7c7ccccc7)cc6)CC5)CC3)C2)O4)C(=O)N1 (some centres unmarked)
**Query** pIC50 comparison. Which is larger, 1 or 2 ? // return label of chosen record
**Result** 2

====

Biological target: ERα (Homo sapiens)
Test: Degradation of ERα in T-47D cells (immunoblotting, 4 h)
Format: cell-based
Parameters: host or cells: T-47D
Details: 10nM compound
assay_metric: Degradation rate (%) of ERα in T-47D cells

Recorded Degradation rate (%) of ERα in T-47D cells, per entry:
C[C@H]1CN(C(=O)C2(F)CCN(c3ccc([C@@H]4c5ccc(O)cc5CC[C@@H]4c4ccccc4)cc3)CC2)CCC1N1CCC2(CC1)COc1c2ccc2c1CN(C1CCC(=O)NC1=O)C2=O (some centres unmarked)	78
C[C@@H]1CN(C(=O)C2(F)CCN(c3ccc([C@@H]4c5ccc(O)cc5CC[C@@H]4c4ccccc4)cc3)CC2)CCC1N1CCC2(CC1)COc1c2ccc2c1CN(C1CCC(=O)NC1=O)C2=O (some centres unmarked)	78

(A) COC(=O)[C@@H]1C[C@H](N2CCC3(CC2)COc2c3ccc3c2CN(C2CCC(=O)NC2=O)C3=O)CCN1C1CC2(CCN(c3ccc([C@@H]4c5ccc(O)cc5CC[C@@H]4c4ccccc4)cc3)CC2)C1 (some centres unmarked)
(B) C[C@@H]1Cc2cc(O)ccc2C(c2c(F)cc(N3CCC(N4CCC(C(=O)N5CCC6(CC5)COc5c6ccc6c5CN(C5CCC(=O)NC5=O)C6=O)CC4)CC3)cc2F)N1CC(F)F (some centres unmarked)
(C) O=C1CCC(N2Cc3ccc4c(c3C2=O)OC2(CC4)CCN(CC3CCN(c4ccc([C@@H]5c6ccc(O)cc6CC[C@@H]5c5ccccc5)cc4)CC3)CC2)C(=O)N1 (some centres unmarked)
**Query** # ascending order, key=Degradation rate (%) of ERα in T-47D cells Form entry: ranked labels (order as requested).
**Result** C, B, A
(C: -15%, B: 38%, A: 85%)

====

Target: ERα (Homo sapiens)
Sequence (P03372 1-595): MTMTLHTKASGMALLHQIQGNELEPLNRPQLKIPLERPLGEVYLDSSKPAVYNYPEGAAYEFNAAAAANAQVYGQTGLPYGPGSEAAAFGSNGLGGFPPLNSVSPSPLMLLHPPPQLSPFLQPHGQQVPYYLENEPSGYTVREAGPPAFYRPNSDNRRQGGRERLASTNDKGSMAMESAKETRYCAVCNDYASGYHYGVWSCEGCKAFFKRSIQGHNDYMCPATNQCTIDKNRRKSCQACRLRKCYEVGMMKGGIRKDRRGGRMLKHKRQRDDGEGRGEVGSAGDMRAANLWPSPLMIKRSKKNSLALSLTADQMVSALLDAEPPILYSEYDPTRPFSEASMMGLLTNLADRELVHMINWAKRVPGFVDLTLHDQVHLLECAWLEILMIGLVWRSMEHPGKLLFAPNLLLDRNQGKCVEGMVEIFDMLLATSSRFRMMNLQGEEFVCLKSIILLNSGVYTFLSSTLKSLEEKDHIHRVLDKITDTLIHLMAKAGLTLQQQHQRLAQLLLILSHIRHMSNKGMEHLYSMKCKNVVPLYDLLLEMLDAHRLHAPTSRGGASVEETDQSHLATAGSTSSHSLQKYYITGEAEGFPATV
Assay: Degradation of ERα in T-47D cells (immunoblotting, 4 h)
Format: cell-based
Parameters: host or cells: T-47D
Conditions: 10nM compound
assay_metric: Degradation rate (%) of ERα in T-47D cells

O=C1CCC(N2Cc3c(ccc4c3OCC43CCN(C(=O)CN4CC5(CCN(c6ccc([C@@H]7c8ccc(O)cc8CC[C@@H]7c7ccccc7)cc6)CC5)C4)CC3)C2=O)C(=O)N1 (some centres unmarked) [K8]	85
O=C1CCC(N2Cc3c(ccc4c3OCC43CCN(C[C@H]4CC[C@H](OC5CCN(c6ccc([C@@H]7c8ccc(O)cc8CC[C@@H]7c7ccccc7)cc6)CC5)CC4)CC3)C2=O)C(=O)N1 (some centres unmarked) [G24]	81
O=C1CCC(N2Cc3cc4c(cc3C2=O)OC2(CC4)CN(C3CCC4(CC3)CCN(C3CCN(c5ccc([C@@H]6c7ccc(O)cc7CC[C@@H]6c6ccccc6)cc5)CC3)CC4)C2)C(=O)N1 (some centres unmarked) [K14]	67
CC1(C)CC(N2CCC3(CC2)COc2c3ccc3c2CN(C2CCC(=O)NC2=O)C3=O)CCN1C(=O)C1CCN(c2ccc([C@@H]3c4ccc(O)cc4CC[C@@H]3c3ccccc3)cc2)CC1 (some centres unmarked) [K28]	86
O=C1CCC(N2Cc3c(ccc4c3OCC43CCN(C4CCN(C5CCN(c6ccc([C@@H]7c8ccc(O)cc8CC[C@@H]7c7ccccc7)cc6)CC5)CC4F)CC3)C2=O)C(=O)N1 (some centres unmarked) [H34]	77

====

Target: AR protein (Homo sapiens, UniProt P10275)
Construct: host or cells: VCaP
Sequence (P10275 whole entry): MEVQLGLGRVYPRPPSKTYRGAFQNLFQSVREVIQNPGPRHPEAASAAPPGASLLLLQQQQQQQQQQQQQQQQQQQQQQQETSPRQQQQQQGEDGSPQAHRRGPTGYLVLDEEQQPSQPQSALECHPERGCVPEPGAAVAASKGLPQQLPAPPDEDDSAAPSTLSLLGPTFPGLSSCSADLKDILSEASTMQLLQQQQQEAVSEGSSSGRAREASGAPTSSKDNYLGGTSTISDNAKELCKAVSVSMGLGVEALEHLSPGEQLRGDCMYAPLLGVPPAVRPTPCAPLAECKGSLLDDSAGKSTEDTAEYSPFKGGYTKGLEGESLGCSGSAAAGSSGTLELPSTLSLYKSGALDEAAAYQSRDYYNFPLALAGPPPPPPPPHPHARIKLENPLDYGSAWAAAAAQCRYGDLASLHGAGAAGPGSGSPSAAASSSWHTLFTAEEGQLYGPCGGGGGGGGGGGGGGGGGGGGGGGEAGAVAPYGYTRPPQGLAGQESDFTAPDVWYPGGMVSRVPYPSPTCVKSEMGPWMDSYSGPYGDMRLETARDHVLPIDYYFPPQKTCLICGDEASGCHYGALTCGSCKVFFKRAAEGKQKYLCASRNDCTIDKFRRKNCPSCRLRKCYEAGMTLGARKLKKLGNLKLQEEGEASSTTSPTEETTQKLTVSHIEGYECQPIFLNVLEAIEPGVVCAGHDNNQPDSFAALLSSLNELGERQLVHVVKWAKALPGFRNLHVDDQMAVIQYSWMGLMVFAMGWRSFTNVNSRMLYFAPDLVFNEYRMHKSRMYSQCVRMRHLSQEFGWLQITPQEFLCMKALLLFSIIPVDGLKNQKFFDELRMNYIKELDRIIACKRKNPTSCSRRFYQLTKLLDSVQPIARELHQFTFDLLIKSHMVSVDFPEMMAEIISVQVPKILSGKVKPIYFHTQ
Type: cell-based
Conditions: 0.5 nM, 8 h
assay_metric: Degradation rates of the AR protein in VCAP cells, 0.5 nM (%)
// units = %; emit number, no label

Recorded Degradation rates of the AR protein in VCAP cells, 0.5 nM, per entry:
COc1cc(O[C@H]2CC[C@H](NC(=O)c3ccc(N4CCC(F)(CN5CCC6(CC5)COc5c6ccc6c5C(=O)N(C5CCC(=O)NC5=O)C6)CC4)nn3)CC2)ccc1C#N (relative stereo) [2-316]	35
N#Cc1ccc(O[C@H]2CC[C@H](NC(=O)c3ccc(N4CCC(CN5CCC6(CC5)COc5c6ccc6c5C(=O)N(C5CCC(=O)NC5=O)C6)CC4)nn3)CC2)cc1Cl (relative stereo) [2-313]	78
CC1(CN2CCC3(CC2)COc2c3ccc3c2C(=O)N(C2CCC(=O)NC2=O)C3)CCN(c2ccc(C(=O)N[C@H]3CC[C@H](Oc4ccc(C#N)c(Cl)c4)CC3)nn2)CC1 (relative stereo) [2-262]	34

**Query** Which Degradation rates of the AR protein in VCAP cells, 0.5 nM reading was recorded for the compound N#Cc1ccc(O[C@H]2CC[C@H](NC(=O)c3ccc(N4CCC(F)(CN5CCC6(CC5)COc5c6ccc6c5C(=O)N(C5CCC(=O)NC5=O)C6)CC4)nn3)CC2)cc1Cl (relative stereo) [2-315] ?
**Result** 31

**Query** Which Degradation rates of the AR protein in VCAP cells, 0.5 nM reading was recorded for the compound COc1cc(O[C@H]2CC[C@H](NC(=O)c3ccc(N4CCC(CN5CCC6(CC5)COc5c6ccc6c5C(=O)N(C5CCC(=O)NC5=O)C6)CC4)nn3)CC2)ccc1C#N (relative stereo) [2-314] ?
**Result** 86

**Query** Which Degradation rates of the AR protein in VCAP cells, 0.5 nM reading was recorded for the compound COc1cc(O[C@H]2C(C)(C)[C@H](NC(=O)c3ccc(N4CCC(C)(CN5CCC6(CC5)COc5c6ccc6c5C(=O)N(C5CCC(=O)NC5=O)C6)CC4)cc3)C2(C)C)ccc1C#N (relative stereo) [2-292] ?
**Result** 30

**Query** Which Degradation rates of the AR protein in VCAP cells, 0.5 nM reading was recorded for the compound COc1cc(O[C@H]2C(C)(C)[C@H](NC(=O)c3ccc(N4CCC(CN5CCC6(CC5)COc5c6ccc6c5C(=O)N(C5CCC(=O)NC5=O)C6)(OC)CC4)cc3)C2(C)C)ccc1C#N (relative stereo) [2-293] ?
**Result** 72

**Query** Which Degradation rates of the AR protein in VCAP cells, 0.5 nM reading was recorded for the compound COc1cc(O[C@H]2C(C)(C)[C@H](NC(=O)c3ccc(N4CCC(CN5CCC6(CC5)COc5c6ccc6c5C(=O)N(C5CCC(=O)NC5=O)C6)CC4)cc3)C2(C)C)ccc1C#N (relative stereo) [2-318] ?
**Result** 55

**Query** Which Degradation rates of the AR protein in VCAP cells, 0.5 nM reading was recorded for the compound C[C@H]1CC2(CCN(c3ccc(N4CCC(CN5CCC6(CC5)COc5c6ccc6c5C(=O)N(C5CCC(=O)NC5=O)C6)CC4)cc3)CC2)CN1c1ccc(C#N)c(Cl)c1 (some centres unmarked) [2-103] ?
**Result** 0

**Query** Which Degradation rates of the AR protein in VCAP cells, 0.5 nM reading was recorded for the compound COC1(CN2CCC3(CC2)COc2c3ccc3c2C(=O)N(C2CCC(=O)NC2=O)C3)CCN(c2ccc(C(=O)N[C@H]3CC[C@H](Oc4ccc(C#N)c(Cl)c4)CC3)nn2)CC1 (relative stereo) [2-263] ?
**Result** 65

**Query** Which Degradation rates of the AR protein in VCAP cells, 0.5 nM reading was recorded for the compound COc1cc(O[C@H]2CC[C@H](NC(=O)c3ccc(N4CCC(C)(CN5CCC6(CC5)COc5c6ccc6c5C(=O)N(C5CCC(=O)NC5=O)C6)CC4)nn3)CC2)ccc1C#N (relative stereo) [2-261] ?
**Result** 44
